systemName: human MSR1 extracellular domain expressed with a N-terminal nonahistidine tag (His9-hMSR1; R&D Systems, Cat #2708-MS) (human) (UniProt P21757)
Sequence (P21757 other isoform, or with tags, fused parts or gaps): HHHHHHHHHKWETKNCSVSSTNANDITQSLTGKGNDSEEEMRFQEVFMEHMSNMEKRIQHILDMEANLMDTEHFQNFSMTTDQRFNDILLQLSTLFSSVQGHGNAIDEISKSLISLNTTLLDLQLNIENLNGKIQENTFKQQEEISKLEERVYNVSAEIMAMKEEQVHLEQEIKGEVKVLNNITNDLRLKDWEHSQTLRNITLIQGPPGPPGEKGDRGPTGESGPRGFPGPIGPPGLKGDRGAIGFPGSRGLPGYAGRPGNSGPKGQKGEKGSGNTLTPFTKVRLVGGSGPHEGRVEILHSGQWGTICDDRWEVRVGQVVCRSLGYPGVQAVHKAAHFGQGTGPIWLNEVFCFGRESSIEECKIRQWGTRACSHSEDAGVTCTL
measurementProtocol: competition ELISA; 300 nM antibody, competitor biot-AGE-BSA, plate-coated His9-hMSR1
reportedEndpoint: % Blocking (%)
Just the number in %, nothing appended.

**Q:** Recorded % Blocking of H1H21231N (antibody, human IgG1, V domains shown) VH: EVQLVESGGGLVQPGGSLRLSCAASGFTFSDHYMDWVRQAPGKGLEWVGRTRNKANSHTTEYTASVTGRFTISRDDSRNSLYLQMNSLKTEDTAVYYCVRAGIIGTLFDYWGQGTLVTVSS VL: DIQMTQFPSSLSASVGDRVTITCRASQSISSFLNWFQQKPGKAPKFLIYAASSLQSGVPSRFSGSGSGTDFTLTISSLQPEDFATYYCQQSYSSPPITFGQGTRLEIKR , please.
**A:** -44

**Q:** Recorded % Blocking of H2aM21229N (antibody, mouse IgG2a, V domains shown) VH: EVQLVESGGGLVKPGGSLRLSCAASGFTFSRYSMNWVRQAPGKGLEWVSSISSSSSYIYYGDTVKGRFTISRDNAKKSLYLQMNSLRAEDTAVYYCVRDRGQLVLYFDYWGQGTLVTVSS VL: DIQMTQSPASLSTSIRDRVTITCRASLSISSFLNWFQQRPGKAPKLLIYVASNLQSGVPSRFSDSGSGTDFTLTISSLQPEDFATYYCQQNYSTPPITFGQGTRLEIK , please.
**A:** 3

Consider the additional binder presented here.
**Q:** Recorded % Blocking of H1H27747P-N297Q (antibody, human IgG1, V domains shown) VH: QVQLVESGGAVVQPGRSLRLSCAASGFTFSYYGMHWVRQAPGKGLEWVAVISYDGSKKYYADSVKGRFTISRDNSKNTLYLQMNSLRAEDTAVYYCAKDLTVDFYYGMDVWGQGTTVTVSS VL: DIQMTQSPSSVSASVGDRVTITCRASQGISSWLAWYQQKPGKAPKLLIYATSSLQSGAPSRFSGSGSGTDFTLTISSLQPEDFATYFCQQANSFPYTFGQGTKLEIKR , please.
**A:** -2
